Here, each record is paired with measured remaining activity at 0.1 µg/mL data.
Target: HMG-CoA reductase (Rattus norvegicus)
Construct: 0.6 mg/ml of rat liver microsome fraction; from tissue; host or cells: rat liver (microsome fraction)
Sequence (P51639 whole entry): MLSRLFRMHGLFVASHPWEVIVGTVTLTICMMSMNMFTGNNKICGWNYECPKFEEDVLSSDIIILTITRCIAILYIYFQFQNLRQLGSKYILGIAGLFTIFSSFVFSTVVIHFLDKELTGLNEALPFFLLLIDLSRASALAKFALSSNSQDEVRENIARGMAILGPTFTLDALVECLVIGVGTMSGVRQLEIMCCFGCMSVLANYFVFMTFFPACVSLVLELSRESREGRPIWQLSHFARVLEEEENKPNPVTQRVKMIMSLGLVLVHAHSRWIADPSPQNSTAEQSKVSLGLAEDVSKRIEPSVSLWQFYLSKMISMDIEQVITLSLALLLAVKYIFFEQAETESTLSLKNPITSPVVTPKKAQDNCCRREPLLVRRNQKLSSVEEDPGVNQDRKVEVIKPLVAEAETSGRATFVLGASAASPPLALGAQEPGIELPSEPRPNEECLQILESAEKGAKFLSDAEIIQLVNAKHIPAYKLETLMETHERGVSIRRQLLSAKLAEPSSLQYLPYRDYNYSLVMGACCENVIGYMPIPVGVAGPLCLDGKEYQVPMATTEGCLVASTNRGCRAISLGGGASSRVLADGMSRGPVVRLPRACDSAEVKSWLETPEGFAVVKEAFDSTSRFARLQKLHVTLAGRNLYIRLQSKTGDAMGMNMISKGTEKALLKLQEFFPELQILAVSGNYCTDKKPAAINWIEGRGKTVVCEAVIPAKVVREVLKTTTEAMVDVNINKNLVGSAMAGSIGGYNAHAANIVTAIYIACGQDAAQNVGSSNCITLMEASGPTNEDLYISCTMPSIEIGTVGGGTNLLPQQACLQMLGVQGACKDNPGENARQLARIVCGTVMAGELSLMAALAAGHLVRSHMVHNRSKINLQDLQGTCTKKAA
Assay: HMG-CoA reductase inhibitory activity ([14C]HMG-CoA to [14C]mevalonic acid, rat liver microsome fraction)
Type: biochemical
Conditions: 0.1 μg/ml; read-out: Enzyme activity (% relating to control)
// note: answer is a bare numeric in %

Worked examples, 3 compounds total:
>>> meas_value("CCC(C)C(=O)OC1CCC2C(F)(F)C23C=CC(C)C(CCC2CC(O)CC(=O)O2)C13 (stereo not shown)")
74
>>> meas_value("CCC(C)C(=O)OC1CCC2CC23C=CC(C)C(CCC2CC(O)CC(=O)O2)C13 (stereo not shown)")
63
>>> meas_value("CCC(C)C(=O)OC1CCC2C(Cl)(Cl)C23C=CC(C)C(CCC(O)CC(O)CC(N)=O)C13 (stereo not shown)")
98

Next compound, please.
input: Please report the measured remaining activity at 0.1 µg/mL for CCC(C)C(=O)OC1CCC2C(Cl)C23C=CC(C)C(CCC2CC(O)CC(=O)O2)C13 (stereo not shown)
output: 71

* * *

Biological target: HMG-CoA reductase (Rattus norvegicus)
Construct: 0.6 mg/ml of rat liver microsome fraction; from tissue; host or cells: rat liver (microsome fraction)
Test: HMG-CoA reductase inhibitory activity ([14C]HMG-CoA to [14C]mevalonic acid, rat liver microsome fraction)
Assay type: biochemical
Conditions: rat liver microsome fraction, 37° C., 30 minutes; read-out: I50 (amount of sample necessary to inhibit the HMG-CoA reductase activity to 50%) (converted)
Description: The HMG-CoA reductase activity can be determined by using [^14 C] HMG-CoA as a substrate and measuring the resulting [^14 C] mevalonic acid (Kuroda and Endo, Biochem Biophys Acta, 486, 70-81), as described in detail in the following. A reaction mixture contains 100 mM of potassium phosphate buffer (pH 7.4), 10 mM of EDTA, 10 mM of dithiothreitol, 10 mM of NADPH, 0.11 mM of DL-[3-^14 C] HMG-CoA (4.5 mCi/mmol), and 0.6 mg/ml of rat liver microsome fraction. […]
OBSERVABLE: IC50 (nM)
// note: answer is a bare numeric in nM

Worked examples, 2 compounds total:
>>> meas_value("CCC(C)C(=O)OC1CCC2C(F)(F)C23C=CC(C)C(CCC2CC(O)CC(=O)O2)C13 (stereo not shown)")
681
>>> meas_value("CCC(C)C(=O)OC1CCC2CC23C=CC(C)C(CCC2CC(O)CC(=O)O2)C13 (stereo not shown)")
544

input: Tell me IC50 of CCC(C)C(=O)OC1CCC2C(Cl)C23C=CC(C)C(CCC2CC(O)CC(=O)O2)C13 (stereo not shown) when tested on HMG-CoA reductase (Rattus norvegicus).
output: 683

The measured values listed here are drawn from patent US5245050A.
